Reference for the values: patent US9695150B2

Method notes: Pharmacokinetics test in beagle dogs
Type: in vivo
Conditions: dog, plasma, po, capsule by gavage, dose 9.9 mg/kg (Form C), 9.7 mg/kg (Amorphous), read-out: AUC0-24 h
Measurement name: AUC(0-t) (ng·h/mL)
Note: unit ng·h/mL is implicit; provide only the numeric part.

Data point: Cc1c(C(=O)Nc2ccc(Oc3ccnc4cc(OCC(C)(C)O)ccc34)c(F)c2)c(=O)n(-c2ccccc2)n1C.Cc1ccc(S(=O)(=O)O)cc1 [Form C] ; AUC(0-t) = 59700

----------
Method notes: Pharmacokinetics test in beagle dogs
Format: in vivo
Conditions: dog, plasma, po, capsule by gavage, dose 9.9 mg/kg (Form C), 9.7 mg/kg (Amorphous)
Measurement name: AUC(0-inf) (ng·h/mL)
Note: unit ng·h/mL is implicit; provide only the numeric part.

Data point: Cc1c(C(=O)Nc2ccc(Oc3ccnc4cc(OCC(C)(C)O)ccc34)c(F)c2)c(=O)n(-c2ccccc2)n1C.Cc1ccc(S(=O)(=O)O)cc1 [Form C] ; AUC(0-inf) = 90100
